Recorded measurements of viability index, one per entry
- Tested on: Plasmodium falciparum NF54 stage V gametocytes
- protocol description: viability index relative to DMSO control (fraction); higher = less gametocyte killing
- settings: 2.5 µM, library set: Broad Institute DOS, incubation time: 72 h
Over roughly 9,900 compounds, “viability index relative to DMSO control” has its median near 1; the lowest 2% begin near 0.85. What follows is part of a selection rich in the lowest values, with near analogues and random picks from the rest.

[[record]]
smiles_text = "COc1ccc2c3c([C@@H](CO)N(C[C@]33CN(C3)C(=O)c3ccccc3F)C(=O)Nc3ccccc3F)n(C)c2c1"
measurement_label = "viability index"
recorded_result = 0.97

[[record]]
smiles_text = "C[C@H](CO)N1C[C@H](C)[C@H](CN(C)S(=O)(=O)c2ccc([N+](=O)[O-])cc2)OCc2ccccc2-c2c(n(C)c3ccccc23)C1=O"
measurement_label = "viability index"
recorded_result = 0.969

[[record]]
smiles_text = "C[C@@H]1CN([C@@H](C)CO)C(=O)c2c(c3ccccc3n2C)-c2ccccc2CO[C@H]1CN(C)Cc1cccc(C(F)(F)F)c1"
measurement_label = "viability index"
recorded_result = 0.932


// moving on: another record for viability index
q: Report viability index for `C[C@@H]1CN([C@@H](C)CO)C(=O)c2c(c3ccccc3n2C)-c2ccccc2CO[C@H]1CN(C)C(=O)Nc1ccccc1C(F)(F)F` please.
a: 0.805
